B1: Keratin, type I cuticular Ha3-II (Homo sapiens), Q14525 (parent)
chain: MPYNFCLPSLSCRTSCSSRPCVPPSCHGYTLPGACNIPANVSNCNWFCEGSFNGSEKETMQFLNDRLASYLEKVRQLERDNAELENLIRERSQQQEPLLCPSYQSYFKTIEELQQKILCSKSENARLVVQIDNAKLAADDFRTKYQTEQSLRQLVESDINSLRRILDELTLCRSDLEAQMESLKEELLSLKQNHEQEVNTLRCQLGDRLNVEVDAAPAVDLNQVLNETRNQYEALVETNRREVEQWFATQTEELNKQVVSSSEQLQSYQAEIIELRRTVNALEIELQAQHNLRYSLENTLTESEARYSSQLSQVQSLITNVESQLAEIRSDLERQNQEYQVLLDVRARLECEINTYRSLLESEDCKLPSNPCATTNACEKPIGSCVTNPCGPRSRCGPCNTFGY

Variants of: B1
Conditions: with k2c4_human KRT4, P19013
Sequence (P19013 whole entry): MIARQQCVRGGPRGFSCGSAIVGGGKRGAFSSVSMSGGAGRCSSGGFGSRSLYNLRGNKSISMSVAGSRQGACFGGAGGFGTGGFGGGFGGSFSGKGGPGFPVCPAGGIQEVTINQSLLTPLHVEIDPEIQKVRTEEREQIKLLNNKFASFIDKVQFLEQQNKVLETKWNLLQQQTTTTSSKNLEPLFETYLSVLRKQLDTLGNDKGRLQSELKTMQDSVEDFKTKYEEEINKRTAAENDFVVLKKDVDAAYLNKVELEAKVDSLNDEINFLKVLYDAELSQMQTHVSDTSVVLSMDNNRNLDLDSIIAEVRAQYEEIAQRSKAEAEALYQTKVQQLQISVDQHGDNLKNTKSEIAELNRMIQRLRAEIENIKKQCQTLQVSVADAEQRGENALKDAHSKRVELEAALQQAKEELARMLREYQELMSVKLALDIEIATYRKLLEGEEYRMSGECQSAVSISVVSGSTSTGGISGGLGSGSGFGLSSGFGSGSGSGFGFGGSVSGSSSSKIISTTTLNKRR

>  <Sequence Change>
I318V

>  <effect of a mutation on the interaction>
with no effect

$$$$
>  <Sequence Change>
Q223R

>  <effect of a mutation on the interaction>
with no effect

$$$$
>  <Sequence Change>
E85K

>  <effect of a mutation on the interaction>
with no effect

$$$$
